Each item that follows carries a reported melting point.

Ask | Which melting point value belongs to O=C(N[C@H]1CC[C@H](CCN2CCN(c3nccc4c3CCO4)CC2)CC1)C(F)(F)F ?
Reply | 213 °C

Ask | Which melting point value belongs to O=C(C[C@@H](O)C(F)(F)F)N[C@H]1CC[C@H](CCN2CCN(c3nccc4c3CCO4)CC2)CC1 ?
Reply | 207 °C

Ask | Which melting point value belongs to O=C(CC1CCCO1)N[C@H]1CC[C@H](CCN2CCN(c3nccc4c3CCO4)CC2)CC1 (mixture of isomers) ?
Reply | 181.5 °C

Ask | Which melting point value belongs to CC(C)C(=O)N[C@H]1CC[C@H](CCN2CCN(c3nccc4c3CCO4)CC2)CC1 ?
Reply | 219 °C

----------
targetSystem: human D3 receptor (Homo sapiens (Human))
Sequence (P35462 whole entry): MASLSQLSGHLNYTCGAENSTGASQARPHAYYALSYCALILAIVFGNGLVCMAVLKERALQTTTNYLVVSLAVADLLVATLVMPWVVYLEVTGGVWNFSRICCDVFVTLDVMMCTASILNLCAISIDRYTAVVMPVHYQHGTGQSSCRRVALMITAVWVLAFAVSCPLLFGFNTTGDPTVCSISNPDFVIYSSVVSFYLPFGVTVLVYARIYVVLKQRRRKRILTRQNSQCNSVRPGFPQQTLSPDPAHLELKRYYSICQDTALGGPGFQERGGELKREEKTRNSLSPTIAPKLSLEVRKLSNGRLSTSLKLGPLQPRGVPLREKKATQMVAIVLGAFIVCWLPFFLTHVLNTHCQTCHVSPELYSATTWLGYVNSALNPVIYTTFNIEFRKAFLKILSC
pKi: −log10 of the molar value.
The threshold is inclusive: pKi of exactly 8 counts as 1; values below receive -1.

CCS(=O)(=O)N[C@H]1CC[C@H](CCN2CCN(c3nccc4sccc34)CC2)CC1 [Example 31] ... 1
CC(=O)N[C@H]1CC[C@H](CCN2CCN(c3ncc(C)c4c3CCO4)CC2)CC1 [Example 108] ... -1
O=C(CO)N[C@H]1CC[C@H](CCN2CCN(c3nccc4sccc34)CC2)CC1 [Example 27] ... 1
O=C(N[C@H]1CC[C@H](CCN2CCN(c3nccc4c3CCO4)CC2)CC1)c1ccc(-n2cccn2)cc1 [Example 126] ... -1
O=C(C[C@H]1CCCO1)N[C@H]1CC[C@H](CCN2CCN(c3nccc4c3CCO4)CC2)CC1 [Example 68] ... -1
O=C(N[C@H]1CC[C@H](CCN2CCN(c3nccc4c3CCO4)CC2)CC1)c1ccc(-n2cccc2)cc1 [Example 133] ... -1
Cc1cc2c(c(N3CCN(CC[C@H]4CC[C@H](NC(=O)C5CCOCC5)CC4)CC3)n1)CCO2 [Example 101] ... -1

Now let's try a different one.
Ask | Please check the record O=C(CC1CCOCC1)N[C@H]1CC[C@H](CCN2CCN(c3nccc4sccc34)CC2)CC1 [Example 23] and state if its pKi is at or above 8.
Reply | 1

----------
human D3 receptor (Homo sapiens (Human)): reported Ki for various compounds.
Answer with a number only, understood to be in nM.

O=C(N[C@H]1CC[C@H](CCN2CCN(c3nccc4c3CCO4)CC2)CC1)C1(O)CCC1 [Example 123] ... 131

Ask | Which Ki value belongs to O=C(N[C@H]1CC[C@H](CCN2CCN(c3nccc4c3CCO4)CC2)CC1)c1ccc(F)cc1 [Example 45] ?
Reply | 10.7

Ask | Which Ki value belongs to Cc1cnc(N2CCN(CC[C@H]3CC[C@H](NC(=O)CC4CCOCC4)CC3)CC2)c2ccoc12 [Example 106] ?
Reply | 38

Ask | Which Ki value belongs to O=C(CC1CCC1)N[C@H]1CC[C@H](CCN2CCN(c3nccc4c3CCO4)CC2)CC1 [Example 73] ?
Reply | 8.92

Ask | Which Ki value belongs to CC(C)=CC(=O)N[C@H]1CC[C@H](CCN2CCN(c3nccc4c3CCO4)CC2)CC1 [Example 80] ?
Reply | 15.4

Ask | Which Ki value belongs to O=C(N[C@H]1CC[C@H](CCN2CCN(c3nccc4c3CCO4)CC2)CC1)c1ccc(-c2cccnc2)cc1 [Example 120] ?
Reply | 16.1

Ask | Which Ki value belongs to CCOCC(=O)N[C@H]1CC[C@H](CCN2CCN(c3nccc4occc34)CC2)CC1 [Example 12] ?
Reply | 150

Ask | Which Ki value belongs to O=C(C[C@@H]1CCCO1)N[C@H]1CC[C@H](CCN2CCN(c3nccc4c3CCO4)CC2)CC1 [Example 69] ?
Reply | 18.1
